Where a name gives a salt, the structure may show the parent alone.
Below: a set of entries, each annotated with reported melting point.

molecule	recorded measurement
c1ccc(-c2ccc3c(c2)CCN(CCN2CCCC2)C3)cc1 [Example 178]	268 to 270 °C

**Q:** For the molecule shown here, COC[C@H](C)NC(=O)c1ccc(-c2ccc3c(c2)CCN(CCN2CCCC2)C3=O)cc1 (as salt: hydrochloride) [Example 126] , give the reported melting point.
**A:** 232 to 233 °C

**Q:** For the molecule shown here, N#Cc1ccc(Oc2ccc3c(c2)CCN(CCN2CCCC2)C3=O)cn1 (as salt: hydrochloride) [Example 52] , give the reported melting point.
**A:** 203 to 205 °C

====

Where a name gives a salt, the structure may show the parent alone.
Below: a set of entries, each annotated with reported melting point.

compound	melting point
C[C@@H]1CCCN1CCN1CCc2cc(C(=O)N3CCCCCC3)ccc2C1=O (as salt: hydrochloride) [Example 144]	192 to 193 °C

Please find the next compound below.
**Q:** For the compound shown here, O=C1c2ccc(-c3ccccc3)cc2CCN1CCN1CCCC1 (as salt: hydrochloride) [Example 16] , give the reported melting point.
**A:** 218 to 220 °C

====

Below: a set of entries, each annotated with reported melting point.
Counter-ions that a name gives are not always drawn.

# count of solved cases: 10
compound	recorded measurement
CCNC(=O)c1ccc(Oc2ccc3c(c2)CCN(CCN2CCCC2)C3=O)cc1	215 to 216 °C
COC[C@@H]1CCCN1C(=O)c1ccc(-c2ccc3c(c2)CCN(CCN2CCCC2)C3=O)cc1 (as salt: hydrochloride)	193 to 195 °C
O=C(NC1CCC1)c1ccc(-c2ccc3c(c2)CCN(CCN2CCCC2)C3=O)cc1 (as salt: hydrochloride)	255 to 258 °C
N#Cc1ccc(Oc2ccc3c(c2)CCN(CCN2CCCC2)C3=O)nc1 (as salt: hydrochloride)	189 to 190 °C
O=C(c1ccc(-c2ccc3c(c2)CCN(CCN2CCCC2)C3)cc1)N1CCCC1 (as salt: hydrochloride)	241 to 242 °C
O=C(c1ccc2c(c1)CCN(CCN1CCCC1)C2=O)N1CCCC1 (as salt: hydrochloride)	194 to 196 °C
COCCNC(=O)c1ccc(-c2ccc3c(c2)CCN(CCN2CCCC2)C3=O)cc1 (as salt: hydrochloride)	178 to 180 °C
C[C@@H]1CCCN1CCN1CCc2cc(-c3ccc(C(=O)N4CCCC4)cc3)ccc2C1=O (as salt: hydrochloride)	243 to 244 °C
N#Cc1ccc(-c2ccc3c(c2)CCN(CCCN2CCCCC2)C3=O)cc1 (as salt: hydrochloride)	249 to 250 °C
C[C@@H]1CCCN1CCN1CCc2cc(C(=O)N3CCCC3)ccc2C1=O (as salt: hydrochloride)	166 to 167 °C

**Q:** For the compound shown here, C[C@@H]1CCCN1CCN1CCc2cc(Oc3ccc(C#N)nc3)ccc2C1=O (as salt: hydrochloride) , give the reported melting point.
**A:** 218 to 220 °C

**Q:** For the compound shown here, O=C(NC1CCC1)c1ccc(Oc2ccc3c(c2)CCN(CCN2CCCC2)C3=O)cc1 , give the reported melting point.
**A:** 236 to 237 °C

**Q:** For the compound shown here, O=C(c1ccc(-c2ccc3c(c2)CCN(CCN2CCCC2)C3)cc1)N1CCCCC1 (as salt: hydrochloride) , give the reported melting point.
**A:** 270 to 272 °C

**Q:** For the compound shown here, COC(=O)c1ccc(-c2ccc3c(c2)CCN(CCN2CCCC2)C3=O)cc1 (as salt: hydrochloride) , give the reported melting point.
**A:** 118 to 120 °C

**Q:** For the compound shown here, C[C@@H]1CCCN1CCN1CCc2cc(Oc3ccc(C#N)cn3)ccc2C1=O (as salt: hydrochloride) , give the reported melting point.
**A:** 184 to 185 °C

====

Below: a set of entries, each annotated with reported melting point.
Structures can show the parent of a compound that is named as a salt.

**Q:** For the molecule shown here, O=C(O)c1ccc(Oc2ccc3c(c2)CCN(CCN2CCCC2)C3=O)cc1 , give the reported melting point.
**A:** 99 to 100 °C

**Q:** For the molecule shown here, CCN(CC)C(=O)c1ccc(-c2ccc3c(c2)CCN(CCN2CCCC2)C3=O)cc1 (as salt: hydrochloride) [Example 62] , give the reported melting point.
**A:** 177 to 178 °C

**Q:** For the molecule shown here, C[C@@H]1CCCN1CCN1CCc2cc(Oc3ccc(C#N)cc3)ccc2C1=O (as salt: hydrochloride) [Example 49] , give the reported melting point.
**A:** 254 to 255 °C

**Q:** For the molecule shown here, C[C@@H]1CCCN1CCN1CCc2cc(N3CCCCCC3)ccc2C1=O (as salt: hydrochloride) [Example 166] , give the reported melting point.
**A:** 182 to 184 °C

**Q:** For the molecule shown here, CCNC(=O)c1ccc(-c2ccc3c(c2)CCN(CCN2CCC[C@H]2C)C3=O)cc1 (as salt: hydrochloride) [Example 75] , give the reported melting point.
**A:** 228 to 230 °C

**Q:** For the molecule shown here, CNC(=O)c1ccc(-c2ccc3c(c2)CCN(CCN2CCCC2)C3)cc1 (as salt: hydrochloride) [Example 181] , give the reported melting point.
**A:** 280 to 281 °C

**Q:** For the molecule shown here, CNC(=O)c1ccc(-c2ccc3c(c2)CCN(CCCN2CCCC2)C3=O)cc1 (as salt: hydrochloride) [Example 141] , give the reported melting point.
**A:** 158 to 159 °C

====

Below: a set of entries, each annotated with reported melting point.
Counter-ions that a name gives are not always drawn.

molecule	metric	recorded measurement
O=C(NC1CC1)c1ccc(-c2ccc3c(c2)CCN(CCN2CCCC2)C3=O)cc1 (as salt: hydrochloride)	melting point	222 to 224 °C

**Q:** For the molecule shown here, CNC(=O)c1ccc(Oc2ccc3c(c2)CCN(CCN2CCCC2)C3=O)nc1 (as salt: hydrochloride) , give the reported melting point.
**A:** 228 to 230 °C

**Q:** For the molecule shown here, C[C@@H]1CCCN1CCN1CCc2cc(-c3ccc(C(=O)NC4CC4)cc3)ccc2C1=O (as salt: hydrochloride) , give the reported melting point.
**A:** 255 to 257 °C
